The following molecules are shown together with reported pIC50 values.
- Target entity: human TLR7 (Homo sapiens (Human), UniProt Q9NYK1)
- Sequence (Q9NYK1 27-1049): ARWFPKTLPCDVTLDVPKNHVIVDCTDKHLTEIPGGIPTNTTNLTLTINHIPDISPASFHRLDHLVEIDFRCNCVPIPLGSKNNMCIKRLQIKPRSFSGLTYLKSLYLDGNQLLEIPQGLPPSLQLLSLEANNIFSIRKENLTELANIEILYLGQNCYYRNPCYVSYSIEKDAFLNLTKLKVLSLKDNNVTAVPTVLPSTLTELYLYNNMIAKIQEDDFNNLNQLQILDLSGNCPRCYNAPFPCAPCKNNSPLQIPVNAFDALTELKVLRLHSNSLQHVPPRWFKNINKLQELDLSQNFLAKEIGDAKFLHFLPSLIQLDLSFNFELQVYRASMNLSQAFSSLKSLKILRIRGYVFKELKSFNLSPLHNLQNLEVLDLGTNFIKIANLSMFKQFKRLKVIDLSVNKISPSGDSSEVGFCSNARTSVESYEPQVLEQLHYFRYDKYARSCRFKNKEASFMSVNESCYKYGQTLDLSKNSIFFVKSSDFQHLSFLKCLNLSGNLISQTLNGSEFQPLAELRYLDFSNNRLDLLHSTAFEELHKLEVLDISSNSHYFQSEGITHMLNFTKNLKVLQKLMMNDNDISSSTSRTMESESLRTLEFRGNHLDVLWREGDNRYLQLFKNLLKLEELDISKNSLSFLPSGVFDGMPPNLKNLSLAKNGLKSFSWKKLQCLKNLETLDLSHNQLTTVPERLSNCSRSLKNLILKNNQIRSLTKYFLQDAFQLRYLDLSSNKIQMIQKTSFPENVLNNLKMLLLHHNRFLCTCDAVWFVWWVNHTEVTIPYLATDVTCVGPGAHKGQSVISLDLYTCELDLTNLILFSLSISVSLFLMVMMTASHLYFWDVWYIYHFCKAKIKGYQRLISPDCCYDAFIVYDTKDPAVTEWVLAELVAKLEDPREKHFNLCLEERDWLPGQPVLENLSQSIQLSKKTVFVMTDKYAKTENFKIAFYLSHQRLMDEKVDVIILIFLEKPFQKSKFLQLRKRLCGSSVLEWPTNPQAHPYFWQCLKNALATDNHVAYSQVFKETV
- Assay notes: TLR7 inhibition reporter assay (HEK-Blue, SEAP)
- Assay type: cell-based
- Details: HEK-Blue cells overexpressing human TLR7, gardiquimod 7.5 μM stimulation
pIC50: −log10 of the molar value.

>  <Molecule>
CC(C)c1c(-c2ccnc3[nH]ncc23)[nH]c2ccc(-c3nnc(CNCC#N)o3)cc12

>  <pIC50>
5.65

$$$$
>  <Molecule>
CCc1c(-c2ccnc(C)c2)[nH]c2ccc(-c3noc(CCC4CCNCC4)n3)cc12

>  <pIC50>
6.49

$$$$
>  <Molecule>
COc1ccc(-c2[nH]c3ccc(-c4ccc(NCC5CCN(C)C5)cc4)cc3c2C(C)C)cc1OC (centres unmarked)

>  <pIC50>
6.77

$$$$
>  <Molecule>
Cc1cc(-c2[nH]c3ccc(-c4nnc(C5CCN(C(=O)CN(C)C)CC5)[nH]4)cc3c2C(C)C)ccn1

>  <pIC50>
7.55

$$$$
>  <Molecule>
Cc1cc(-c2[nH]c3ccc(-c4nnc(C5CCCN(C)C5)o4)cc3c2C(C)C)ccn1 (centres unmarked) [Example 170]

>  <pIC50>
7.96

$$$$
>  <Molecule>
Cc1cc(-c2[nH]c3ccc(-c4ccc(N5CC(C)OC(C)C5)nc4)cc3c2C(C)C)cc(C)n1 (centres unmarked)

>  <pIC50>
6.78

$$$$
>  <Molecule>
Cc1cc(-c2[nH]c3ccc(-c4cc5c(s4)CN(CC(=O)N(C)C)CC5)cc3c2C(C)C)cc(C)n1

>  <pIC50>
7.72

$$$$
>  <Molecule>
Cc1cc(-c2[nH]c3ccc(-c4nnc(C5CCN(Cc6ccccc6)CC5)[nH]4)cc3c2C(C)C)ccn1

>  <pIC50>
7.48

$$$$

====

The following molecules are shown together with reported pIC50 values.
- Target entity: human TLR9 (Homo sapiens (Human), UniProt Q9NR96)
- Sequence (Q9NR96 26-1032): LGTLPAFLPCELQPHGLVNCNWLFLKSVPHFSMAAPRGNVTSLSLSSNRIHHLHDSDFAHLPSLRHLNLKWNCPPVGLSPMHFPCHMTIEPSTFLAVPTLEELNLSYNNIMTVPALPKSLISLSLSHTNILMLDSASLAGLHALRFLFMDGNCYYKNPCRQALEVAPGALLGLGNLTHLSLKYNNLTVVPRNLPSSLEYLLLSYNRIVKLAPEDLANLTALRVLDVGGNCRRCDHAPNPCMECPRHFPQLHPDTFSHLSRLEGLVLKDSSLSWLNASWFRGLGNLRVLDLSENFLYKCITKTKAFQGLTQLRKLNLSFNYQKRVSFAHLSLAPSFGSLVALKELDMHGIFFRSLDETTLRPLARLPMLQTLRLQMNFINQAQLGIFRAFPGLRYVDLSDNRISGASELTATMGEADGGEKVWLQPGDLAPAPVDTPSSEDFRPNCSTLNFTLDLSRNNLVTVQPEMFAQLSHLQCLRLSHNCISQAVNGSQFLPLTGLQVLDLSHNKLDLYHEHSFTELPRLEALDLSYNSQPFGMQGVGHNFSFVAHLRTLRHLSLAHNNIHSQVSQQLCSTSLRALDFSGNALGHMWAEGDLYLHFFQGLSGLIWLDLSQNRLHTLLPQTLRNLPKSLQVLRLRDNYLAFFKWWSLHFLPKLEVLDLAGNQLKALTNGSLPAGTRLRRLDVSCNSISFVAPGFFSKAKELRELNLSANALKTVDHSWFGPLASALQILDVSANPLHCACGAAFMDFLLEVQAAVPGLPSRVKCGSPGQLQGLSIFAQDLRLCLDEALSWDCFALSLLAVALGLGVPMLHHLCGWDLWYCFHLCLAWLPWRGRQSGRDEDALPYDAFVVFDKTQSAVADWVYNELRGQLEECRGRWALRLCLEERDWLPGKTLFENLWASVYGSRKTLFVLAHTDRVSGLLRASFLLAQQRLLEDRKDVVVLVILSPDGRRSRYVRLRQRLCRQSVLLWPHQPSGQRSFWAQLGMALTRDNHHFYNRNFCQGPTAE
- Assay notes: TLR9 inhibition reporter assay (HEK-Blue, SEAP)
- Details: HEK-Blue cells overexpressing human TLR9, ODN2006 5 nM stimulation
pIC50: −log10 of the molar value.

>  <Molecule>
CC(C)c1c(-c2ccnc3[nH]ncc23)[nH]c2ccc(-c3nc4n(n3)CCN(C3CCN(C(C)C)CC3)C4)cc12 [Example 211]

>  <Readout qualifier>
=

>  <pIC50>
5.74

$$$$
>  <Molecule>
Cc1cc(-c2[nH]c3ccc(-c4ccc(N)nc4)cc3c2C(C)C)ccn1 [Example 237]

>  <Readout qualifier>
=

>  <pIC50>
5.01

$$$$
>  <Molecule>
Cc1cc(-c2[nH]c3ccc(-c4cnc(N)cn4)cc3c2C(C)C)ccn1 [Example 359]

>  <Readout qualifier>
=

>  <pIC50>
4.84

$$$$
>  <Molecule>
COc1ccc(-c2[nH]c3ccc(-c4nnc(CNCCS(=O)(=O)O)o4)cc3c2C(C)C)cc1OC [Example 113]

>  <Readout qualifier>
<

>  <pIC50>
4.30

$$$$
>  <Molecule>
COc1ccc(-c2[nH]c3ccc(-c4nnc([C@@H]5CCCNC5)o4)cc3c2C(C)C)cc1OC [Example 55]

>  <Readout qualifier>
=

>  <pIC50>
5.90

$$$$
>  <Molecule>
CNc1nnc(-c2ccc3[nH]c(-c4ccnc(C)c4)c(C(C)C)c3c2)o1 [Example 346]

>  <Readout qualifier>
<

>  <pIC50>
4.30

$$$$
>  <Molecule>
Cc1cc(-c2[nH]c3ccc(-c4nc(C(=O)NCCCN5CCCC5)co4)cc3c2C(C)C)cc(C)n1 [Example 284]

>  <Readout qualifier>
=

>  <pIC50>
6.25

$$$$
>  <Molecule>
Cc1cc(-c2[nH]c3ccc(-c4nnc(C5CCC(C(F)(F)F)CC5)o4)cc3c2C(C)C)ccn1 (centres unmarked) [Example 78]

>  <Readout qualifier>
<

>  <pIC50>
4.30

$$$$

====

- Target entity: human TLR9 (Homo sapiens (Human), UniProt Q9NR96)
- Assay notes: TLR9 inhibition reporter assay (HEK-Blue, SEAP)
- Details: HEK-Blue cells overexpressing human TLR9, ODN2006 5 nM stimulation
pIC50: −log10 of the molar value.
Respond with Met for pIC50 values of 6 and above, Not met for values below.

>  <Compound>
CC(C)c1c(-c2ccnc3[nH]ncc23)[nH]c2ccc(-c3nnc(C4CN5CCC4CC5)o3)cc12 (stereo not drawn)

>  <Assigned label>
Met

$$$$
>  <Compound>
CC(C)c1c(-c2ccnc3[nH]ncc23)[nH]c2ccc(-c3nnc(CC4CCCNC4)o3)cc12 (stereo not drawn)

>  <Assigned label>
Met

$$$$
>  <Compound>
Cc1cc(-c2[nH]c3ccc(-c4nnc(C[C@H]5CCCN5)o4)cc3c2C(C)C)ccn1

>  <Assigned label>
Met

$$$$
>  <Compound>
CC(C)c1c(-c2ccnc3[nH]ncc23)[nH]c2ccc(-c3nnc(CNC4CC4)o3)cc12

>  <Assigned label>
Not met

$$$$
>  <Compound>
COc1ccc(-c2[nH]c3ccc(-c4nnc(C(=O)N5CCN(c6cnccn6)CC5)o4)cc3c2C(C)C)cc1OC

>  <Assigned label>
Not met

$$$$
>  <Compound>
COc1ccc(-c2[nH]c3ccc(-c4cccc(C(=O)NC5CCN(C(C)C)CC5)c4)cc3c2C(C)C)cc1OC

>  <Assigned label>
Not met

$$$$
>  <Compound>
COc1ccc(-c2[nH]c3ccc(-c4nnc(CCn5ccnc5)o4)cc3c2C(C)C)cc1OC

>  <Assigned label>
Not met

$$$$
>  <Compound>
CC(=O)N1CCCN(Cc2nnc(-c3ccc4[nH]c(-c5ccnc6[nH]ncc56)c(C(C)C)c4c3)o2)CC1

>  <Assigned label>
Not met

$$$$
>  <Compound>
Cc1cc(-c2[nH]c3ccc(-c4nnc(C5CCCN(C(C)C)C5)[nH]4)cc3c2C(C)C)cc(C)n1 (stereo not drawn) [Example 358]

>  <Assigned label>
Met

$$$$
>  <Compound>
Cc1cc(-c2[nH]c3ccc(-c4cc5c(s4)CN(C(C)C)CC5)cc3c2C(C)C)cc(C)n1

>  <Assigned label>
Met

$$$$
>  <Compound>
COc1ccc(-c2[nH]c3ccc(-c4ccc(N5CCN(CC(C)C)CC5)nc4)cc3c2C(C)C)cc1OC

>  <Assigned label>
Not met

$$$$
>  <Compound>
CC(C)c1c(-c2ccnc3[nH]ncc23)[nH]c2ccc(-c3nnc(CNC45CC6CC(CC(C6)C4)C5)o3)cc12

>  <Assigned label>
Not met

$$$$
>  <Compound>
CC(C)c1c(-c2ccnc3[nH]ncc23)[nH]c2ccc(-c3ccc4nccnc4c3)cc12

>  <Assigned label>
Not met

$$$$
>  <Compound>
Cc1cc(-c2[nH]c3ccc(-c4nc(C(=O)NCCN5CCCCC5)co4)cc3c2C(C)C)cc(C)n1

>  <Assigned label>
Met

$$$$
>  <Compound>
COc1ccc(-c2[nH]c3ccc(-c4ccnc(N5CCN(C6CCC6)CC5)c4)cc3c2C(C)C)cc1OC

>  <Assigned label>
Not met

$$$$
>  <Compound>
COc1ccc(-c2[nH]c3ccc(-c4ccc(NCCN5CCOCC5)cc4)cc3c2C(C)C)cc1OC

>  <Assigned label>
Not met

$$$$
>  <Compound>
CCc1c(-c2ccc(OC)c(OC)c2)[nH]c2ccc(-c3noc(C4CCN(Cc5ccccc5)CC4)n3)cc12

>  <Assigned label>
Not met

$$$$
>  <Compound>
COc1ccc(-c2[nH]c3ccc(-c4cccc(C(=O)NCCN5CCOCC5)c4)cc3c2CC(F)(F)F)cc1OC

>  <Assigned label>
Not met

$$$$
>  <Compound>
COc1ccc(-c2[nH]c3ccc(-c4cnc(N5CCN(C)CC5)nc4)cc3c2C(C)C)cc1OC

>  <Assigned label>
Not met

$$$$
>  <Compound>
Cc1cc(-c2[nH]c3ccc(-c4ccc(N5CCN(C)CC5)nc4)cc3c2C(C)C)cc(C)n1

>  <Assigned label>
Met

$$$$
>  <Compound>
CNC(=O)CN1CCCC(c2nnc(-c3ccc4[nH]c(-c5ccnc(C)c5)c(C(C)C)c4c3)[nH]2)C1 (stereo not drawn)

>  <Assigned label>
Not met

$$$$
>  <Compound>
COc1ccc(-c2[nH]c3ccc(-c4nnc(C(=O)NCCCn5ccnc5)o4)cc3c2C(C)C)cc1OC

>  <Assigned label>
Not met

$$$$
>  <Compound>
Cc1cc(-c2[nH]c3ccc(-c4nc(C(=O)NC5CCN(C(C)C)CC5)co4)cc3c2C(C)C)ccn1

>  <Assigned label>
Not met

$$$$
>  <Compound>
Cc1cc(-c2[nH]c3ccc(-c4cnc(N)nc4)cc3c2C(C)C)ccn1

>  <Assigned label>
Not met

$$$$
>  <Compound>
COc1ccc(-c2[nH]c3ccc(-c4nnc(C(=O)N5CCN(C(C)=O)CC5)o4)cc3c2C(C)C)cc1OC

>  <Assigned label>
Not met

$$$$
